Assayed system: Ubiquitin carboxyl-terminal hydrolase 17-like protein 5 (Homo sapiens) (UniProt A8MUK1)
Sequence (A8MUK1 whole entry, looked up): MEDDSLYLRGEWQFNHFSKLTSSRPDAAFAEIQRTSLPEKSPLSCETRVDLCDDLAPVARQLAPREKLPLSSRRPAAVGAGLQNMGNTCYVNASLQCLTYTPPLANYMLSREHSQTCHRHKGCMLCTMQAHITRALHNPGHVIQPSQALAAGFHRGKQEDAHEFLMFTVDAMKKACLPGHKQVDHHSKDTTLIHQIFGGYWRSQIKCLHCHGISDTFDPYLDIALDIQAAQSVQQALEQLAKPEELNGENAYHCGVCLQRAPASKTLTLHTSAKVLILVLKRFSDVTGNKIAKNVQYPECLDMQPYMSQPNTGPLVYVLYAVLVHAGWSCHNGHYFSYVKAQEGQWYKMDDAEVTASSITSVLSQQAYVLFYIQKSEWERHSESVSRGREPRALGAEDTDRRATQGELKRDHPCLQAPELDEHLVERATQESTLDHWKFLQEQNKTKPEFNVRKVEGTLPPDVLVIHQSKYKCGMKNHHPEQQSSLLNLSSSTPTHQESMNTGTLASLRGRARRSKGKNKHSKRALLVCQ
Test method notes: ubiquitin-specific protease 17 DUB inhibitors, concentration-effect assay, cell-free, verification of initial screening actives (AID 1645864)
Condition parameters: purified USP17, ubiquitin-rhodamine cleavage fluorescence, 3 h
Calls of active or inactive are those of the source.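 How the source made its calls: active means maximal inhibition of USP17 at or above 30% in the confirmation dose-response, a value not among the printed readouts; inactive means the rest.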
Outcome codes: active, inactive

Compound: CC(C)(C)n1ncc2c(=O)n(Cc3cccc([N+](=O)[O-])c3)cnc21
Group: inactive
//
Compound: Fc1cccc(Cn2cc(-c3noc(-c4cccnc4)n3)nn2)c1
Group: active
//
Compound: COCC(C)Nc1ncc(-c2cnccn2)c(-c2ccc(C)s2)n1 (stereo not given)
Group: inactive
//
Compound: Cc1ccc(C2c3cccn3CCN2C(=O)Nc2ccccc2)cc1 (stereo not given)
Group: inactive
//
Compound: O=C(Nc1cccc(S(=O)(=O)N2CCCC2)c1)c1ccc2c(=O)n3c(nc2c1)CCCCC3
Group: inactive
//
Compound: Cc1ccccc1Cn1ccc2ccn(Cc3cccnc3)c2c1=O
Group: inactive
//
Compound: CCOc1ccc(Nc2cc(C(=O)NCCc3ccccc3)c3ccccc3n2)cc1
Group: active
//
Compound: Cc1ccc(S(=O)(=O)c2cnc(SCC(=O)Nc3ccc(Cl)cc3)nc2N)cc1C
Group: active
//
Compound: O=c1c(OC2O[C@H](CO)[C@H](O)[C@H](O)[C@H]2O)c(-c2ccc(O)cc2)oc2cc(O)cc(O)c12 (stereo not given in full)
Group: active
//
Compound: O=C(Nc1ccccc1)c1cn(-c2cc(N3CCCC3)ncn2)cn1
Group: inactive
